# assayText: folding stability dG unfold (combined trypsin and chymotrypsin); higher = more stable
measuredQuantity: folding stability dG unfold (kcal/mol)
Respond numerically; units are kcal/mol and should not be typed.

SMSIELDAESIEEIADFLKKAIEDGNPDAKIRIELYPLGGEREEREYDSIDEIIAELKKGPARIRIELEPSA [r9_589_TrMRF] | 1.88
SAGGMLKIEVTVPAEYPEQAEEIAAEIRDLLEAGPYVKVLKVEIEPTEDTVRVTVVVEIEFDSPEELISAGG [r13_39_TrMRF] | 1.78
SAGGSAGGSMETTREELPPELTVERVTEREPGEGRITVRVKVYRPDGTLLSEEVVERDPEDLESAGGSAGGS [r12_240_JUSTAS] | 0.295
SAGMKVTTFTTPTRTVTVTLTPDGTVTVTVTDPSGNPTVTAPDGTPVASTTAPDGTTTFTLDPALFAAASAG [r5_457_JUSTAS] | 0.896
SAGGSEVKIVKIESVEIEEENGFLRIKVRATLKFYDKETGELVEEKEVELEVTLKNGKKLTFKIKASAGGSA [r2_271_TrROS_Hall] | 3.12
SAGGSAGGSAGGAKPVTFTFPDGTKAVSVEETPTSVVLYDPGPGALYVLDKETKTITPASAGGSAGGSAGGS [r10_289_TrMRF] | -0.72

Lab note: measured folding stability dG unfold of SMPGVRVRLYTVRVKTPEGGELTAPIAVPAELFTEEEIRELVREAFPDAEDVEIEPAVLELPPAPGLLTASA [r9_841_TrMRF] was 1.43

folding stability dG unfold recorded for this sequence, SAGGSGPLLERALEEIREALAKAKEGEEVEIEVKVTVTGPDGRTREFTFRIRFVVKDGKIVKVEIESAGGSA [r2_173_TrROS_Hall] , is 4.66

folding stability dG unfold reported for this sequence SAGGSAGGSAGGSSMITVSTTSFPDGTRKVTITEPGTGKPLKTVDMPPSESVSAVKEKLSSAGGSAGGSAGG [r7_633_JUSTAS] : -0.245

Note to self: folding stability dG unfold recorded for SAGGSAGGSAGMTKIVIQYEVPPDKPPPDLEEIKKSLPGAENIEITREELPNGTWVYTVESAGGSAGGSAGG [r17_205_JUSTAS] was 0.593

For SAMLVVLKDPKTGKLILVDPEQLSPEYLERGVEPVREIPPLEVVEVESEEEAEEIRKKYPEKILVTLGPSAG [r14_638_JUSTAS] the sequence record lists folding stability dG unfold as -0.121

Noted for SAYYIIIKIENPNDGKPFIIMIPGNNIHIFDPDNGKPVEIEVDGDKIEIKFNNRPVTVKPLEVIPPEAISAG [r14_208_TrROS] : its folding stability dG unfold reads 2.15

Note to self: folding stability dG unfold recorded for SMKITIVENEDGSLKIKVYFKDTGKVVEKTFEKGETIEEQVKKLAEELEKELGLEVVDVEIVKLPPPEKPSA [r9_1205_TrROS_Hall] was 3.57

Reported folding stability dG unfold for MMTKEEIEKLAEELAKELEKKGYKIVKVEIEEVKPGEVKIKVDGKEITITLKDGRKLRIKVEVKKLPKEELS [r1_31_TrROS_Hall] was 3.04

So, SAGGSAGGSAGGAAPDDVKIEIEWDVGVMTMEMMNPGGQPHKMYMIMVSLKIEIEPNADSAGGSAGGSAGGS [r10_1212_TrROS] ? Its folding stability dG unfold was 4.95

// SETITLEIELPDGSKLTIEIPVEKIPGVDEYVVTVKITEYLPNGKPRSREFTFLAKSPEEAVEIALLAAGSA [r9_337_TrMRF] : folding stability dG unfold value = 5.57

Query SAGGSAGGSAGGSMSSSSSPLPDEDGLVTRGKSSEPSPPFTWTTTVDSSGVPSTTVTSLESAGGSAGGSAGG [r7_187_JUSTAS] yields folding stability dG unfold of 0.323

// folding stability dG unfold value for SAGGSAGGSAGVKVLKNPGDSLVTVVTETTVTKTTTDPEGNTTTTPVKVTTTTLLEVPLTSAGGSAGGSAGG [r17_103_JUSTAS] : 0.279

Entry MKETVTVDITVVVEDENGKKHLVRVKVTVEKLPDGTYRVTIEVENLETGKTETIEIEVKGAEFKPGDVIEIS [r1_14_TrROS_Hall] — recorded folding stability dG unfold = 2.87

folding stability dG unfold reported for this sequence SAELLDALKKNGWTIRIPIKHPGNGETWPMPFRIEPDGDGWKISIPPPNGKPHPFKIEDIEIMPPEDLKSAG [r14_427_TrROS] : 0.561

So, SAGGSMPETVKVRVRNADGSLLTLEITRDADGELTVTLEVDGKTVELSLEELEKLPPGVEVVEVEPSAGGSA [r2_431_TrROS_Hall] ? Its folding stability dG unfold was 2.26

The sequence listed as SAGGSAGGSAGMIDIKFEKIEGSSEYRATLTRPGGEVVPVLFSSSESAEEAKERAIELLESAGGSAGGSAGG [r17_161_JUSTAS] shows folding stability dG unfold equal to 1.15

The value of folding stability dG unfold measured for the sequence SAGGSAGGMELISEKPAKVKYGDKEAEVWVKLVKIPNTDEVLVTLYFPGSGKPRIIPAKDVEIESAGGSAGG [r6_263_TrMRF] turned out to be 0.836

Recorded result, SAGGSAGGSAMTAREIADELVKEGKEVKVTVRRPGEEKEITVTKEGEPLPPGAEIVKIEEVSAGGSAGGSAG [r3_421_TrROS_Hall] , folding stability dG unfold: 0.0343

---

# assayText: folding stability dG unfold (combined trypsin and chymotrypsin); higher = more stable
Examples of sequences with documented folding stability dG unfold follow.
The figure you give is taken to be in kcal/mol; do not add the unit.

Below: 6 sequences and their reported folding stability dG unfold.
SAGGMLDLSDVEVLNTVPIGGGNYLVLLKVPKLGKVVVVPASDLKKLKENVPNVKISFTPVAPSESGSAGGS [r16_61_TrMRF] | 1.09
SAGGSAALELVEEVSEFYDPNTGKKTTLVVARKDGKPILILIPPSGATVYDASNGNKLFEIPPELLSAGGSA [r15_85_JUSTAS] | 0.951
SAGNRYEVNLTYMYPPDDPGLIEKIKKILRKLGWEIEKVKEQRMPDNKMRMVTHKIRIPGLPPEALKAFSAG [r14_956_TrROS] | 1.31
SAGGSAMTLRLELRVRLQVFNEDGELLGERELDIEIELEGEPLEVPPPPEIDPEEAARLLGLDPDGSAGGSA [r15_572_TrMRF] | 2.37
SAGGSAGGSRIIFRIPPEFRENMPIEEIVEEFLPPGMPVEIEWERTPDPWYVTVDIEIPPGQLSAGGSAGGS [r12_716_TrROS] | 0.334
SAGGSAMTIEKREDGYLVITVDVPPGTSPEELAERLKKLFPNEEVTVTVVKDGKLVKEFVIKAEDLSAGGSA [r15_1047_TrROS_Hall] | 2.2

Field folding stability dG unfold (entry SAGDVVEIEITYWVPPDEMTVDEFVDHIMSMLPGVKVKSIEIDEIHPYPDGWYEVTVNYTIEVPPGQEISAG [r5_682_TrROS] ) reads 2.81

---

# assayText: folding stability dG unfold from trypsin proteolysis; higher = more stable
Here, each record is paired with measured folding stability dG unfold data.
Express the reported value numerically, then name its unit.

Use the examples below as a reference point.
SAGGSAGGSAGGMILVENPSLNESTVLSKDTPISSFKVPSDNSKVRIIIIYPSNSFVVISSAGGSAGGSAGG [r7_763_JUSTAS] | 1.85 kcal/mol
SAGGSAGGMTITLTLPDGTVITITVSRPGSPTTVVSVKAERPARGGTDIPEEVAKELAEKILKESAGGSAGG [r6_235_JUSTAS] | 1.51 kcal/mol
SAMKITIEVIKLPDGYYVVRITVYDKNGEKVEERELVFSSLEDLLAALKELFPDQKVTVEIRKVTKEELSAG [r14_964_TrROS_Hall] | 2.16 kcal/mol

Form: sequence = SAGGSMIITRDPATGLVTVYKNGKKVKTIEVPPGNPVGVSLSYNPSPNTYTVTLTTPESPVKISNLSAGGSA [r2_399_JUSTAS] ; folding stability dG unfold = 0.855 kcal/mol

# sequence SAGGSAGGSAGGMITVEYDPSRPVYTVTVTDPTTGKTTVIDVPRDDLEQALALAEALLKSAGGSAGGSAGGS [r10_1117_JUSTAS] ; its folding stability dG unfold = 0.647 kcal/mol

The measured folding stability dG unfold associated with SAGGMPEGMVVLRIRVRVEKVEVRRDPAVPGRVSRRVEVREVEIELVVDSREALEALRELGFEIEEVSAGGS [r8_482_TrROS_Hall] reads 3.79 kcal/mol

For this sequence ( SAGGGRVAVLKVEVRNPETGETTEVELVLPLPPEMTPEEAEEAAREAARTLAESTGVEVEIKSVELLSAGGS [r8_312_TrMRF] ), measured folding stability dG unfold is 3.77 kcal/mol

Field folding stability dG unfold (entry SAGGSAGGEKVEKKEVKVELKIVIVVSEELREMSEEELEELLKELAAKLPGVKEVKIEILPLPESAGGSAGG [r6_710_TrROS_Hall] ) reads 1.04 kcal/mol

sequence SAGGSAGGSAGMYYVIKRPGKVEILPEEEVPKVIEEDPNVEVKKFDSEEEAKKALEELLKSAGGSAGGSAGG [r11_60_JUSTAS] , folding stability dG unfold observed: 0.539 kcal/mol

Sure, the documented folding stability dG unfold for SAGGSAGGGKRLEITRTYFIPPDDIDKLKDLPGIREVTPHRMPDGYYMITVTIRIPISADQLKASAGGSAGG [r6_155_TrROS] is 1.7 kcal/mol

Per the record, SAGGSAGGSGNPDTPTSPVFVVIEKTTTVVPAPNGLYPKRTSVKISIPGGAAAGAEELIAELLSAGGSAGGS [r12_933_JUSTAS] has folding stability dG unfold of -0.2 kcal/mol

Looking up SAGGSAGGSAGDNIYVFEIDIKIKPRKDPDGKWQPEIEINIKIKDIKPIPPNDPELKDLLSAGGSAGGSAGG [r11_236_TrROS] , I see its folding stability dG unfold listed as 2 kcal/mol

The sequence listed as SAGGSAGGMVTVELPGLPTPEEARARAEEVVAAIVAAGHPGEEVTLTVVYPGSGAAETFTVPLASAGGSAGG [r6_238_JUSTAS] shows folding stability dG unfold equal to 0.225 kcal/mol

Measured folding stability dG unfold, SMTVEVELTVTVEVVDPKTGKKKTVTVKVTVKVRVTEVKTKDGKTEVKVELSEEALEEARRLAEELAKKKSA [r9_698_TrROS_Hall] : 3.13 kcal/mol
